target: T1, CD47-His antigen (human, UniProt Q08722 19-139); experiment: SPR (Biacore), method of Example 5, 1:1 Binding fit
T1 construct: Human CD47 ECD with C-terminal 8xHIS tag, expressed in HEK293F; also called hCD47-His; human CD47-His
T1 sequence (Q08722 other isoform, or with tags, fused parts or gaps limits assumed): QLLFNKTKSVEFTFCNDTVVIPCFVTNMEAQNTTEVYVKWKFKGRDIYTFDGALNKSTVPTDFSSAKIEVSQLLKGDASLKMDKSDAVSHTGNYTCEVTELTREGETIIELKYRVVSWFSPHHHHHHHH
measurement-name: Kd (nM)
Write it as a number; the unit nM goes unstated.

As a guide, the following entries are already answered.
{"columns": ["binder", "Kd, nM"],
 "data": [
  ["47-R2-85 (antibody, human IgG1, kappa, V domains shown, Anti-CD47 monoclonal antibody, L12-6-VH with light chain R2-85) VH: QVQLQESGPGLVKPSETLSLTCTVSGGSLDNYYWSWIRQPPGKGLEWIGYIYYSGNTNYNPSLKSRVTISVDTSKNQFSLKLSSVTAADTAVYYCARGGRFLERYWGQGTLVTVSS VL: DIQMTQSPSSLSASVGDRVTIPCRASQGIGKFLAWYQQKPGKAPSLLIYAASSLQSGVPSRFSGSGSGTDFTLTISSLQTEDVAVYYCQQYFSTPYTFGQGTKVDIKR", 275],
  ["47-R2-78 (antibody, human IgG1, kappa, V domains shown, Anti-CD47 monoclonal antibody, L12-6-VH with light chain R2-78) VH: QVQLQESGPGLVKPSETLSLTCTVSGGSLDNYYWSWIRQPPGKGLEWIGYIYYSGNTNYNPSLKSRVTISVDTSKNQFSLKLSSVTAADTAVYYCARGGRFLERYWGQGTLVTVSS VL: DIQMTQSPSSFSASTGDRVTITCRASQGISSYLAWYQQKPGKAPKLLIYAASRLQSGVPSRFSGSGSGTDFTLTISSLQAEDVAVYYCQQYYSTPYTFGQGTKVDIKR", 655],
  ["47-R2-6 (antibody, human IgG1, kappa, V domains shown, Anti-CD47 monoclonal antibody, L12-6-VH with light chain R2-6) VH: QVQLQESGPGLVKPSETLSLTCTVSGGSLDNYYWSWIRQPPGKGLEWIGYIYYSGNTNYNPSLKSRVTISVDTSKNQFSLKLSSVTAADTAVYYCARGGRFLERYWGQGTLVTVSS VL: EIVLTQSPSSVSASVGDKLTMTCQASQDIGKHLNWYQQKPGKPPKLLIYGASNLKTGVPSRFSGTGSGTDFTLTISSLQPEDFATYYCQQSYTTPYTFGQGTRLEIKR", 1.11]
]}

As a next step, examine the binder that follows.
# input binder: 47-R2-4 (antibody, human IgG1, kappa, V domains shown, Anti-CD47 monoclonal antibody, L12-6-VH with light chain R2-4; also called parental anti-CD47 antibody 47-R2-4) VH: QVQLQESGPGLVKPSETLSLTCTVSGGSLDNYYWSWIRQPPGKGLEWIGYIYYSGNTNYNPSLKSRVTISVDTSKNQFSLKLSSVTAADTAVYYCARGGRFLERYWGQGTLVTVSS VL: EIVLTQSPSSLSASVGDRVTITCLASQTIGTWLAWYQQKPGKSPQLLIYAASTLQSGVPSRFSGSGSGTDFTLTISSLQPEDVATYYCQQYYSTPRTFGQGTKVEIKR ; wanted: its Kd
3.29
